- Species on record: Rattus norvegicus
- Method notes: DrugMatrix - Regimen: Daily Repeat
- Format: toxicity, organism-based, Sprague-Dawley
- Parameters: regimen Daily Repeat, gender Male, age 6-8 weeks
- Assay conditions: in vivo, ip, 0 mg/kg, […], tissue Blood, route intraperitoneal, dose level Control, time 14 day, vehicle 100 % SALINE
Reported values of ABSOLUTE SEGMENTED NEUTROPHIL for individual entries
The answer is to be given in cells/µL; state only the numeric part.

Please fill in: ABSOLUTE SEGMENTED NEUTROPHIL reported for GOLD SODIUM THIOMALATE = 2330

Lab note: CARBOPLATIN gave ABSOLUTE SEGMENTED NEUTROPHIL of 2330

====

CHOLESTEROL by entry:
- Organism: Rattus norvegicus
- Method notes: DrugMatrix - Regimen: Daily Repeat
- Format: toxicity, organism-based, Sprague-Dawley
- Parameters: regimen Daily Repeat, gender Male, age 6-8 weeks
- Assay conditions: in vivo, po, 0 mg/kg, 72 h, tissue Plasma, route oral GAVAGE, dose level Control, time 3 day, vehicle .5 % CMC
API: value field is a number in mg/dL; no unit string.

Worked cases, CHOLESTEROL given:
CC[C@H]1OC(=O)[C@H](C)[C@@H](O[C@H]2C[C@@](C)(OC)[C@@H](O)[C@H](C)O2)[C@H](C)[C@@H](O[C@@H]2O[C@H](C)C[C@H](N(C)C)[C@H]2O)[C@](C)(O)C[C@@H](C)/C(=N\OCOCCOC)[C@H](C)[C@@H](O)[C@]1(C)O = 71.17
C[C@]12CCC(=O)C=C1CC[C@@H]1[C@@H]2C(=O)C[C@@]2(C)[C@H]1CC[C@]2(O)C(=O)CO = 71.17
CCc1ccc(C(=O)C(C)CN2CCCCC2)cc1 (stereo not given) = 76.67
Cc1c(-c2ccccc2)oc2c(C(=O)OCCN3CCCCC3)cccc2c1=O [FLAVOXATE] = 71.67

Let us move to another entry and its CHOLESTEROL.
GET /value?item= CCc1cccc2c3c([nH]c12)C(CC)(CC(=O)O)OCC3 (stereo not given) &field=CHOLESTEROL returns 71.17

====

Listing of entries alongside the reported ABSOLUTE LYMPHOCYTE.
- Organism: Rattus norvegicus
- Method notes: DrugMatrix - Regimen: Daily Repeat
- Format: toxicity, organism-based, Sprague-Dawley
- Parameters: regimen Daily Repeat, gender Male, age 6-8 weeks
- Assay conditions: in vivo, po, 0 mg/kg, 120 h, tissue Blood, route oral GAVAGE, dose level Control, time 5 day, […]
Only the number, expressed in CELLS/uL, is required.

The reported value for CC1=C(/C=C/C(C)=C/C=C/C(C)=C\C(=O)O)C(C)(C)CCC1 [ISOTRETINOIN] in terms of ABSOLUTE LYMPHOCYTE is 8546.17

Entry c1ccc2[nH]c(-c3cscn3)nc2c1 [THIABENDAZOLE] — recorded ABSOLUTE LYMPHOCYTE = 11518.33

ABSOLUTE LYMPHOCYTE for CCCCCCCCCc1ccc(O)cc1 [4-NONYLPHENOL] is 12494.67

The reported ABSOLUTE LYMPHOCYTE of the compound CSc1ccc2c(c1)N(CCC1CCCCN1C)c1ccccc1S2 (centres undefined) [THIORIDAZINE] was 14743.5

Summary for this compound, CC(=O)[C@H]1CC[C@H]2[C@@H]3CCC4=CC(=O)CC[C@]4(C)[C@H]3CC[C@]12C [PROGESTERONE] : ABSOLUTE LYMPHOCYTE is 9065

// ABSOLUTE LYMPHOCYTE lookup, compound = CCCC[C@@H](CC)COC(=O)c1ccccc1C(=O)OC[C@@H](CC)CCCC [BIS(2-ETHYLHEXYL)PHTHALATE] , result: 11518.33

The recorded ABSOLUTE LYMPHOCYTE for entry COc1ccc2c(c1)c(CC(=O)OCC(=O)O)c(C)n2C(=O)c1ccc(Cl)cc1 [ACEMETACIN] equals 14952.83

Per the record, COC1=CC(=O)C[C@@H](C)[C@]12Oc1c(Cl)c(OC)cc(OC)c1C2=O [GRISEOFULVIN] has ABSOLUTE LYMPHOCYTE of 15950.83

====

- Organism: Rattus norvegicus
- Method notes: DrugMatrix - Regimen: Daily Repeat
- Format: toxicity, organism-based, Sprague-Dawley
- Set-up: regimen Daily Repeat, gender Male, age 6-8 weeks
- Assay conditions: in vivo, po, 1500 mg/kg, 120 h, tissue Blood, route oral GAVAGE, dose level High, time 5 day, vehicle .5 % CMC
Measurement kind: EOSINOPHIL (%)
Quick note: give the figure in %, leave out the unit.

Past entries and their recorded results:
COC(=O)c1ccc(O)cc1 [METHYLPARABEN] = 0
CCOC(=O)[C@H](CCc1ccccc1)N[C@@H](C)C(=O)N1[C@H](C(=O)O)C[C@@H]2CCC[C@@H]21 = 0.33
O=C1CCc2cc(OCCCCc3nnnn3C3CCCCC3)ccc2N1 [CILOSTAZOL] = 0.37

Please turn your attention to the following entry.
Given item NS(=O)(=O)c1cc2c(cc1Cl)NCNS2(=O)=O [HYDROCHLOROTHIAZIDE] , the value recorded as its EOSINOPHIL is 0.67

====

The reader will find reported ABSOLUTE EOSINOPHIL values listed item by item below.
- Species: Rattus norvegicus
- Method notes: DrugMatrix - Regimen: Daily Repeat
- Assay type: toxicity, organism-based, Sprague-Dawley
- Design: regimen Daily Repeat, gender Male, age 6-8 weeks
- Assay conditions: in vivo, po, 0 mg/kg, 72 h, tissue Blood, route oral GAVAGE, dose level Control, time 3 day, vehicle 100 % WATER
Numbers only here, please. The scale is CELLS/uL.

Worked examples follow.
Clc1ccc(C(c2ccccc2Cl)C(Cl)Cl)cc1 (centres undefined) [MITOTANE] = 58.83
CC(C)(S)[C@@H](N)C(=O)O [PENICILLAMINE] = 0
NCC1(CC(=O)O)CCCCC1 [GABAPENTIN] = 133.83
C[C@]12Cc3c[nH]nc3C[C@@H]1CC[C@@H]1[C@@H]2CC[C@@]2(C)[C@H]1CC[C@]2(C)O [STANOZOLOL] = 32.5
COc1cccc(C2(O)CCCCC2CN(C)C)c1 (centres undefined) [TRAMADOL] = 32.5

So, CN1CCN(C(=O)OC2c3nccnc3C(=O)N2c2ccc(Cl)cn2)CC1 (centres undefined) [ZOPICLONE] ? Its ABSOLUTE EOSINOPHIL was 86.33

Short answer for Fc1ccc([C@@H]2CCNC[C@H]2COc2ccc3c(c2)OCO3)cc1 [PAROXETINE] : ABSOLUTE EOSINOPHIL was 32.5

response.value for NC(=O)c1ncn([C@@H]2O[C@H](CO)[C@@H](O)[C@H]2O)n1 [RIBAVIRIN] (field: ABSOLUTE EOSINOPHIL) = 40

Form: compound = Cn1cnc([N+](=O)[O-])c1Sc1ncnc2nc[nH]c12 [AZATHIOPRINE] ; ABSOLUTE EOSINOPHIL = 91.5

====

- Species: Rattus norvegicus
- Method notes: DrugMatrix - Regimen: Daily Repeat
- Format: toxicity, organism-based, Sprague-Dawley
- Design: regimen Daily Repeat, gender Male, age 6-8 weeks
- Assay conditions: in vivo, po, 80 mg/kg, 120 h, tissue Blood, route oral GAVAGE, dose level High, time 5 day, vehicle .5 % CMC
Measurement kind: ABSOLUTE MONOCYTE (cells/µL)
Give the quantity in cells/µL, number only.

For this compound ( O=c1cc(-c2ccccc2)oc2c1ccc1ccccc12 ), measured ABSOLUTE MONOCYTE is 230

====

- Organism: Rattus norvegicus
- Method notes: DrugMatrix - Regimen: Daily Repeat
- Type: toxicity, organism-based, Sprague-Dawley
- Set-up: regimen Daily Repeat, gender Male, age 6-8 weeks
- Assay conditions: in vivo, po, 0 mg/kg, 72 h, tissue Blood, route oral GAVAGE, dose level Control, time 3 day, vehicle 100 % WATER
# MONOCYTE per record follows
Write the value in % as a bare number.

COc1ccc(C(CN(C)C)C2(O)CCCCC2)cc1 (stereo unspecified) [VENLAFAXINE] = 1.33
Cn1cnc([N+](=O)[O-])c1Sc1ncnc2nc[nH]c12 [AZATHIOPRINE] = 0.5
Clc1ccc(C(c2ccccc2Cl)C(Cl)Cl)cc1 (stereo unspecified) [MITOTANE] = 1.33
NCC1(CC(=O)O)CCCCC1 [GABAPENTIN] = 0.5
CN1CCN(C(=O)OC2c3nccnc3C(=O)N2c2ccc(Cl)cn2)CC1 (stereo unspecified) [ZOPICLONE] = 1.17

Record CN1CCC[C@H]1c1cccnc1 [NICOTINE] . Reported MONOCYTE: 0.67

====

- Organism: Rattus norvegicus
- Method notes: DrugMatrix - Regimen: Daily Repeat
- Type: toxicity, organism-based, Sprague-Dawley
- Set-up: regimen Daily Repeat, gender Male, age 6-8 weeks
- Assay conditions: in vivo, iv, 0 mg/kg, 72 h, tissue Plasma, dose level Control, time 3 day, vehicle 100 % SALINE
Measurement kind: BLOOD UREA NITROGEN (mg/dL)
The reply should be a number in mg/dL, with the unit left off.

Worked examples follow.
NCC[C@H](O)C(=O)N[C@@H]1C[C@H](N)[C@@H](O[C@H]2O[C@H](CN)[C@@H](O)[C@H](O)[C@H]2O)[C@H](O)[C@H]1O[C@H]1O[C@H](CO)[C@@H](O)[C@H](N)[C@H]1O = 15.17
CN(N=O)C(=O)N[C@@H](C=O)[C@@H](O)[C@H](O)[C@H](O)CO = 18.5
CC1(C)S[C@@H]2[C@H](NC(=O)[C@H](NC(=O)N3CCNC3=O)c3ccccc3)C(=O)N2[C@H]1C(=O)O = 16.33

Consider the record given below.
The measured BLOOD UREA NITROGEN associated with CC[C@@]1(O)C(=O)OCc2c1cc1n(c2=O)Cc2cc3ccccc3nc2-1 reads 13.5
